- system: Tumour suppressor p53/oncoprotein Mdm2 (Homo sapiens, UniProt P04637+Q00987)
- Sequence (P04637 whole entry): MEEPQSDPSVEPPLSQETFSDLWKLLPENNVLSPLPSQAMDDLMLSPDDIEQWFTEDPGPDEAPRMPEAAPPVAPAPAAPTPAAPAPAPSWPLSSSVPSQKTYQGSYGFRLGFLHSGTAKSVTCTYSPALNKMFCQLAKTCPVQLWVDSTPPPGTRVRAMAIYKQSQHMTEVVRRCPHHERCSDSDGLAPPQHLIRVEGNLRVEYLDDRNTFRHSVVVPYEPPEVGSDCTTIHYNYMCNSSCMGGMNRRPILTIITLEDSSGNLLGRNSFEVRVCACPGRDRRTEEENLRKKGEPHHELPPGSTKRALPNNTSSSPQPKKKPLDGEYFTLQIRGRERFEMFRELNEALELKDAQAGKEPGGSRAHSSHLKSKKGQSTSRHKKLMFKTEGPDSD
- Sequence (Q00987 whole entry): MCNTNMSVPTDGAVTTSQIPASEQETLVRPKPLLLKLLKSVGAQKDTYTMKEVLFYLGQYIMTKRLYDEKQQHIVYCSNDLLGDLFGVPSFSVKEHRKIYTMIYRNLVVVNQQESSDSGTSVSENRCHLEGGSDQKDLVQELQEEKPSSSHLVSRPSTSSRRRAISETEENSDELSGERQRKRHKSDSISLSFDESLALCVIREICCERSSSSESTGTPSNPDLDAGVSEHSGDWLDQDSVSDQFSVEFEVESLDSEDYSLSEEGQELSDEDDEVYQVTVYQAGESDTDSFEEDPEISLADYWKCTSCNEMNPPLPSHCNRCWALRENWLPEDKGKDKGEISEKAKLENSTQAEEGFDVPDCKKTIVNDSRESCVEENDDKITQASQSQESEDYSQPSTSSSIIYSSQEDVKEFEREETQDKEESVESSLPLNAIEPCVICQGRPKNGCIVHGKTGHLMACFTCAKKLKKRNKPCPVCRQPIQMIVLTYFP
- testName: Binding affinity to human MDM2/p53
pKd: −log10 of the molar value.
endpointLabel: pKd

>>> valuemeasured("CCOc1cc(C(C)(C)C)ccc1C1=N[C@@H](c2ccc(Cl)cc2)[C@@H](c2ccc(Cl)cc2)N1C(=O)N1CCN(CCCS(C)(=O)=O)CC1")
7.97
